- MEASUREMENT_NOTES: physchem
Quick rule: pKa of at least 9 means 1.0, below that means 0.0.

# example entries with known answers
- COMPOUND: "COc1ccc2c3c1O[C@H]1C[C@@H](O)C=C[C@@]31CCN(C)C2"
  LABEL_VALUE: 0.0
- COMPOUND: "CCCN(CCC)C1CCc2c(O)cccc2C1 (stereo not given)"
  LABEL_VALUE: 1.0
- COMPOUND: "N#Cc1ccc(C(=O)N2CCC3(CC2)N=C(N)c2c(F)ccc(F)c2N3)cn1"
  LABEL_VALUE: 0.0
- COMPOUND: "N#Cc1ccc(C(=O)N2CCC3(CC2)N=C(N)c2c(F)ccc(F)c2N3)cc1"
  LABEL_VALUE: 0.0
- COMPOUND: "CN(C)CCC=C1c2ccccc2COc2ccccc21 [DOXEPIN]"
  LABEL_VALUE: 0.0

Q) Determine whether this compound has pKa no lower than 9: NC1=Nc2ccccc2Sc2cccc(F)c21
A) 0.0

Q) Can Cc1ncc2n1-c1ccc(Cl)cc1C(c1ccccc1F)=NC2 be said to have pKa at or above 9?
A) 0.0

Q) Can CCCN(CCC)CCc1ccc(O)c(NC(C)=O)c1 be said to have pKa at or above 9?
A) 1.0

Q) Does the compound O=C(NS(=O)(=O)c1ccc(Cl)cc1)N1CCC(N2CCC(Oc3ccc(Cl)c(Cl)c3)CC2)CC1 have recorded pKa that is 9 or more?
A) 0.0

----------
- MEASUREMENT_NOTES: in vitro
- EXPERIMENTAL_CONDITIONS: human, hepatocytes
Class T: hepatocyte CLint at least 7 µL/min/1e6 cells. Class F: hepatocyte CLint below 7 µL/min/1e6 cells.

Worked examples, 5 compounds total:
- COMPOUND: "COc1ccc(Cl)cc1C(=O)NCCc1ccc(S(=O)(=O)NC(=O)NC2CCCCC2)cc1 [GLYBURIDE]"
  LABEL_VALUE: "T"
- COMPOUND: "Cc1ccc(-c2cc(C(F)(F)F)nn2-c2ccc([S+](C)[O-])cc2)cc1 (stereo not drawn)"
  LABEL_VALUE: "T"
- COMPOUND: "CCC[C@H](CO)Nc1nc(S[C@@H](C)c2cccc(C#N)c2)nc2[nH]c(=O)sc12"
  LABEL_VALUE: "T"
- COMPOUND: "COc1ccc(/C=C2\\NC(=O)NC2=O)cc1"
  LABEL_VALUE: "T"
- COMPOUND: "CCCCN(CCNCCc1ccc(O)c2[nH]c(=O)sc12)C(=O)CCOCCc1ccccc1"
  LABEL_VALUE: "T"

Q) Say whether CC(C)(C)NC[C@H](O)COc1nsnc1N1CCOCC1 shows hepatocyte CLint of 7 µL/min/1e6 cells or more.
A) F

Q) hey, is hepatocyte CLint for this one >= 7 µL/min/1e6 cells? COc1cc(-n2cnc3cc(-c4ccc(Cl)cc4)sc3c2=O)ccc1OC[C@H](OP(=O)(O)O)C1CC1
A) T

Q) Could you verify whether the entry CC(C)(C)S(=O)(=O)N[C@H]1CC[C@H](C(=O)Nc2ccc(C(F)(F)F)cn2)CC1 shows hepatocyte CLint of no less than 7 µL/min/1e6 cells?
A) F

Q) Confirm if hepatocyte CLint reported for the compound C[C@]12CC[C@H](O)CC1=CC[C@@H]1[C@@H]2CC[C@]2(C)C(c3cccnc3)=CC[C@@H]12 is 7 µL/min/1e6 cells or above.
A) T

Q) Check the entry COc1ccccc1OCCNCC(O)COc1cccc2[nH]c3ccccc3c12 (stereo not drawn) : does hepatocyte CLint equal or exceed 7 µL/min/1e6 cells?
A) T

Q) Is reported hepatocyte CLint greater than or equal to 7 µL/min/1e6 cells here: CC(C)(C)c1cc(NC(=O)NCc2ccccc2Sc2ccc3nnc(-c4ccccc4SCCO)n3c2)n(-c2ccc(O)c(Cl)c2)n1
A) T

Q) Does the reported hepatocyte CLint for COCCOc1nc(N)c2[nH]c(=O)n(Cc3cccc(CC(=O)OC)c3)c2n1 fall at or above the 7 µL/min/1e6 cells mark?
A) T

----------
- MEASUREMENT_NOTES: physchem
- EXPERIMENTAL_CONDITIONS: pH 7.4 buffer
MEASURED_ENDPOINT: solubility thermodynamic (µM)
Response body: numeric value in µM, unit text excluded.

Field: example entries. Status: answers known.
- COMPOUND: "CN(C)C(=O)[C@H](Cc1ccccc1)NC(=O)c1cc2cc(Br)ccc2[nH]1"
  solubility thermodynamic (µM): 1
- COMPOUND: "CCOc1cccc2c3c([nH]c12)CCN(C(=O)[C@@H]1CCCC[C@H]1C(=O)NC1(C#N)CC1)C3"
  solubility thermodynamic (µM): 302
- COMPOUND: "O=C(O)c1c(Sc2ccccc2)c2cc(Cl)ccc2n1Cc1ccc(Cl)cc1"
  solubility thermodynamic (µM): 132

Q) Which solubility thermodynamic reading was recorded for the compound CC(C)(C)C(O)C(Cc1ccccc1Cl)n1cncn1 (stereo not given) ?
A) 398

Q) May I ask what solubility thermodynamic has been recorded for Clc1cc(Nc2ncnc3[nH]nc(OCCN4CCCC4)c23)ccc1OCc1ccccn1 ?
A) 12

----------
Form field: logD (one value per entry).
- MEASUREMENT_NOTES: physchem
- EXPERIMENTAL_CONDITIONS: octan-1-ol/water, pH 7.4, LogD7.4
Would you mind answering with just the numeric figure?

- STRUCTURE_AS_SMILES: "CC(=O)N[C@H](C)c1ccc(Nc2ncc3cc(-c4ccncc4)c(C)cc3n2)cc1"
  logD: 3.45
- STRUCTURE_AS_SMILES: "COc1ccc(Cl)c(Nc2ncnc3cc(OC)cc(OC4CCN(C)CC4)c23)c1"
  logD: 3.6
- STRUCTURE_AS_SMILES: "CC(=O)N1CCN(c2ccc(NC(=O)c3nnc(Nc4ccccc4F)o3)cc2)CC1"
  logD: 2.51

Q) Sample O=c1[nH]c2c(O)ccc([C@@H](O)CNCCc3cccc(CNCCc4ccccc4F)c3)c2s1 — what was its logD?
A) 1.06

Q) Quick one: logD of CN(c1ncccc1CNc1nc(Nc2ccc3c(c2)CC(=O)N3)ncc1C(F)(F)F)S(C)(=O)=O ?
A) 2.63

----------
- MEASUREMENT_NOTES: in vitro
- EXPERIMENTAL_CONDITIONS: human, liver microsomes
This section presents molecules with their documented microsomal CLint values.
Give just the numeric value; µL/min/mg need not be written.

Record excerpt, results attached:
- MOLECULE: "CCC(CC)NC(=O)c1cnn(-c2ccccc2)c1NS(=O)(=O)c1ccc(-c2cnco2)cc1"
  UNIT: "µL/min/mg"
  microsomal CLint: 27
- MOLECULE: "CCO/N=C(\\c1ccc(Br)cc1)C1CCN(C2(C)CCN(C(=O)c3c(Cl)cncc3Cl)CC2)CC1"
  UNIT: "µL/min/mg"
  microsomal CLint: 4
- MOLECULE: "COc1ccc(-c2ccnc(N)n2)cc1"
  UNIT: "µL/min/mg"
  microsomal CLint: 41
- MOLECULE: "COc1ccc(CNC(=O)Nc2ncc([N+](=O)[O-])s2)cc1"
  UNIT: "µL/min/mg"
  microsomal CLint: 56
- MOLECULE: "N#Cc1cc(-c2n[nH]c(-c3ccncc3)n2)ccn1"
  UNIT: "µL/min/mg"
  microsomal CLint: 5

Q) Reported microsomal CLint for CNc1nc(C)c(-c2nc(Nc3cccc(N4CCCCC4)c3)ncc2C#N)s1 : what is it?
A) 95.5

----------
- MEASUREMENT_NOTES: physchem
- EXPERIMENTAL_CONDITIONS: octan-1-ol/water, pH 7.4, LogD7.4
Each entry below carries its reported logD.

Answered examples (5):
- COMPOUND: "C=CCn1c(=O)c2c(-c3nc(C#N)cn3C)n(Cc3ccnc4ccc(Cl)cc34)nc2n(CC2CC2)c1=O"
  RECORDED_VALUE: 3.92
- COMPOUND: "O=C(Nc1cc(C(F)(F)F)cc(C(F)(F)F)c1)c1cnc(Cl)nc1C(F)(F)F"
  RECORDED_VALUE: 1.8
- COMPOUND: "CCc1ccc(CCOc2ccc(CC3SC(=O)NC3=O)cc2)nc1 (stereo not given)"
  RECORDED_VALUE: 2.8
- COMPOUND: "CNS(=O)(=O)CCc1ccc2[nH]cc(C3CCN(C)CC3)c2c1"
  RECORDED_VALUE: 0.48
- COMPOUND: "CCN(C(=O)Cc1ccc([N+](=O)[O-])cc1)C1CCN(CCC(c2ccccc2)c2ccccc2)CC1"
  RECORDED_VALUE: 4.1

Kindly consider the entry below.
Q) Returns the measured logD for the input compound. Input: CCCCN(CCCC)CCCOC(=O)c1ccc(N)cc1
A) 1.93

----------
Listed here: items and their measured solubility thermodynamic.
- MEASUREMENT_NOTES: physchem
- EXPERIMENTAL_CONDITIONS: pH 7.4 buffer
Please give a number only; it is taken to be in µM.

- STRUCTURE_AS_SMILES: "CC(=O)Nc1nc(-c2cccs2)cs1"
  RECORDED_VALUE: 100

Q) Looking for the measured solubility thermodynamic of C[C@H]1CN(C(=O)OC(C)(C)C)CCN1c1ncc(OCc2ccc(S(C)(=O)=O)cc2)cn1 , can you help?
A) 2.3

Q) Entry COc1cc2ncnc(Nc3cccc(Cl)c3F)c2cc1CN(C)[C@H](C)C(N)=O : reported solubility thermodynamic = ?
A) 41.7

Q) Any idea what its solubility thermodynamic is? The compound is CC(=O)N(C1=C(NCCO)C(=O)c2ccccc2C1=O)c1cccc(Br)c1
A) 11.7

Q) Field request: solubility thermodynamic | item: COc1cc(OC2CCN(C)CC2)c2c(Nc3cccc4c3OCO4)ncnc2c1
A) 91.2
